target: Adenylate cyclase type 1 (Homo sapiens); assay: Inhibition of human AC1 expressed in HEK293 cells assessed as decrease in A23187-stimulated cAMP accumulation preincubated for 30 mins followed by A23187 stimulation and measured after 1 hr by fluorescence assay; type: cell-based
Sequence (Q08828 whole entry): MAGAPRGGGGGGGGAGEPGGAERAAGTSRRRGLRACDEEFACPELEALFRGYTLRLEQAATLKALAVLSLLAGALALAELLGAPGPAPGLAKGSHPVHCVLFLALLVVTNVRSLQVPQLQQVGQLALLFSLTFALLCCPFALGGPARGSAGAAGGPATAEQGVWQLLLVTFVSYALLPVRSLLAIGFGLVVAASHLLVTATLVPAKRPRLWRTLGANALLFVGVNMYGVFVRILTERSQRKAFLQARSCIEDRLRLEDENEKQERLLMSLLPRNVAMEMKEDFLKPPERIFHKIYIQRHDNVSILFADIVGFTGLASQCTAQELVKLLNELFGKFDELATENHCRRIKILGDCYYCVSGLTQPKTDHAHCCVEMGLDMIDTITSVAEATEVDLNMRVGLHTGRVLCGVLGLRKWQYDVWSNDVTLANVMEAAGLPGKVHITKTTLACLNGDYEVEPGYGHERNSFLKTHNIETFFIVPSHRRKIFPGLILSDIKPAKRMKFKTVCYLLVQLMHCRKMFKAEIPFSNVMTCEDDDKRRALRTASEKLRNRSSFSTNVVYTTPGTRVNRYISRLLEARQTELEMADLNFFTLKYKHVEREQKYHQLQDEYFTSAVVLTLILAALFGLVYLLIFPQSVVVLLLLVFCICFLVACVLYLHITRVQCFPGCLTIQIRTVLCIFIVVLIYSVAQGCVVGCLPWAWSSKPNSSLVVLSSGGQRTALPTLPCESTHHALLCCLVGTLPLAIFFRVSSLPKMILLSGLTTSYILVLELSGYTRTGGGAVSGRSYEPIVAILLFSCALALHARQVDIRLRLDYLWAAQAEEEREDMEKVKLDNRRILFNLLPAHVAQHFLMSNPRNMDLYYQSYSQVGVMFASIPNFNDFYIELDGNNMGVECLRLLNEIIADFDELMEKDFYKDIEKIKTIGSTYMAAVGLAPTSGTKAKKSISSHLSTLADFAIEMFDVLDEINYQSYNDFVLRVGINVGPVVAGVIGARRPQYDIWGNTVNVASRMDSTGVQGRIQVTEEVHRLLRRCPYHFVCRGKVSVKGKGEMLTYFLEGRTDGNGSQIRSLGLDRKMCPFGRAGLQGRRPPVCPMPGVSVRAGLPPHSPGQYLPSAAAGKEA
Below is a list of entries, each paired with its recorded pIC50 value.
Value format note: pIC50 is -log10 of concentration (mol/L); just state the number.

Which pIC50 is reported for this molecule? `O=C(Nc1nnc(C2CCCCC2)o1)c1ccccc1`
4.60

Any idea what pIC50 was measured for `O=C(Nc1nnc(-c2cccs2)o1)c1ccccc1` ?
4.55

Any idea what pIC50 was measured for `CSc1cccc(C(=O)Nc2nnc(-c3ccc4c(c3)OCCO4)o2)c1` ?
5.02

---

experiment: Cytotoxicity against HEK293 cells expressing human AC1 at 30 uM preincubated for 30 mins followed by A23187 stimulation and measured after 1 hr by CellTiter-Glo luminescent cell viability assay relative to control; format: cell-based; conditions: HEK293 cells expressing human AC1, read-out: Activity
readout_label: viability at 1 h, 30 µM (%)
Lab book: enter the figure in %, no units written.

Example entries begin here.
{"structure": "O=C(Nc1nnc(-c2ccc(F)cc2)o1)c1ccccc1F", "readout_label": "viability at 1 h, 30 µM", "endpoint_unit": "%", "numeric_value": 87}
{"structure": "O=C(Nc1nnc(-c2ccc(F)cc2)o1)c1ccc(Br)cc1", "readout_label": "viability at 1 h, 30 µM", "endpoint_unit": "%", "numeric_value": 103}
{"structure": "O=C(Nc1nnc(-c2ccc(F)cc2)o1)c1ccccc1", "readout_label": "viability at 1 h, 30 µM", "endpoint_unit": "%", "numeric_value": 87}
{"structure": "COc1cc(C(=O)Nc2nnc(C3CCCCC3)o2)cc(C(F)(F)F)c1", "readout_label": "viability at 1 h, 30 µM", "endpoint_unit": "%", "numeric_value": 113}

// returns reported viability at 1 h, 30 µM for input `CCc1ccc(C(=O)Nc2nnc(-c3ccc(F)cc3)o2)cc1`
95

---

experiment: Cytotoxicity against HEK293 cells expressing human AC1 at 30 uM preincubated for 30 mins followed by A23187 stimulation and measured after 1 hr by CellTiter-Glo luminescent cell viability assay relative to control; format: cell-based; details: HEK293 cells expressing human AC1, read-out: Activity
readout_label: viability at 1 h, 30 µM

Known results for compounds:
{"structure": "COc1ccc(C(=O)Nc2nnc(-c3ccc4c(c3)CCCC4)o2)cc1", "result": "118 to 121%"}
{"structure": "CC(C)Oc1ccc(C(=O)Nc2nnc(-c3ccc4c(c3)CCCC4)o2)cc1", "result": "124 to 129%"}
{"structure": "CC(C)Oc1ccc(C(=O)Nc2nnc(-c3cccs3)o2)cc1", "result": "73 to 81%"}
{"structure": "CSc1cccc(C(=O)Nc2nnc(-c3ccc4c(c3)CCCC4)o2)c1", "result": "118 to 137%"}
{"structure": "O=C(Nc1nnc(-c2ccc3c(c2)CCCC3)o1)c1cccc(C(F)(F)F)c1", "result": "107 to 125%"}
{"structure": "O=C(Nc1nnc(-c2ccc3c(c2)CCCC3)o1)c1ccc(Br)cc1", "result": "113 to 115%"}

// next item, viability at 1 h, 30 µM requested
Given the entry `COc1cccc(C(=O)Nc2nnc(-c3ccc4c(c3)CCCC4)o2)c1` , report its measured viability at 1 h, 30 µM.
111 to 124%

All figures here come from ChEMBL document CHEMBL4382248.
